System: NCI-H226 lung
Assay: NCI-60 one-dose screen, 48 h (100 = growth as untreated, 0 = no growth, -100 = all killed)
Details: 10 µM unless noted
Method: Growth inhibition of the NCI-H226 human Non-Small Cell Lung tumor cell line is measured as a screen for anti-cancer activity. Cells are grown in 96 well plates and exposed to the test compound for 48 hours. Compounds are tested at a single concentration, which is 10^-5 M for most compounds. The reported endpoint is percent growth (GI% or GIPRCNT), where numbers from 0 - 100% represent growth inhibition, and numbers from -100% - 0 represent cell death. […]
The panel holds about 83,000 compounds, 20% with a hit somewhere; the sample as a whole holds those more often.
Give measured growth for each item. Keep answers brief.
Report the value in % with no unit label.

Query string: Lab note: need growth with NCI-H226 lung for entry `Nc1ccc(S(=O)(=O)Nc2cc(F)cc(F)c2)cc1` , please look it up.
Result string: 104

Query string: Lab note: need growth with NCI-H226 lung for entry `COC(=O)CC(=O)C(=O)OC` , please look it up.
Result string: 97.7

Query string: Request: growth, test system NCI-H226 lung, entry `CCOc1ccc(Br)cc1/C=C(\C#N)c1ccc([N+](=O)[O-])cc1`
Result string: 81.2

Query string: Lab note: need growth for `COc1cc2ncnc(-n3ncc4cc(NC(=O)Nc5ccccc5)ccc43)c2cc1OC` on NCI-H226 lung, anyone have it?
Result string: -13.9

Query string: Please tell me: growth of `COc1ccc(/C=C(/C(=O)N2CCCCC2)c2cc(OC)c(OC)c(OC)c2)cc1` , system NCI-H226 lung?
Result string: 94.8

Query string: Lab request: please report growth under test system NCI-H226 lung for `CCc1ccc(C(=Nc2ccc(N(C)C(=O)CN3CCN(C)CC3)cc2)c2c(O)[nH]c3ccc(C(=O)OC)cc23)cc1`
Result string: -26.2

Query string: Write down the reported growth of `COc1cc2ncnc(-n3ncc4cc(NC(=O)Nc5ccc(Cl)c(C)c5)ccc43)c2cc1OC` , test system: NCI-H226 lung.
Result string: 85.9

Query string: Checklist item: growth tested on NCI-H226 lung, entry `C=CCSc1nnc(COc2ccc3c(C)c(Cc4ccccc4)c(=O)oc3c2C)o1` , value?
Result string: 95

Query string: Could you share what growth was measured for `N=C(N)c1ccc(-c2ccc(-c3ccc(F)cc3)s2)cc1` , tested on NCI-H226 lung?
Result string: -77.3

Query string: GET /values?readout=growth&system=NCI-H226 lung&item= CCOC(=O)C1CCCN1C(=O)C1(NC(C)=O)CCCC1 (stereo unspecified)
Result string: 104

Query string: Reported growth for NCI-H226 lung, given `CC[n+]1c(C)ccc2cc(C)ccc21` ?
Result string: 93.6

---

System: MDA-MB-435 melanoma
Assay: NCI-60 one-dose screen, 48 h (100 = growth as untreated, 0 = no growth, -100 = all killed)
Conditions: 10 µM unless noted
This is part of a sample that, as a whole, favours compounds with a hit. Of some 83,000 tested, about 20% had one in any assay.
Exercise: for every item that follows, state its recorded growth.
Record the value in %, omitting the unit from your answer.

Query string: What growth value was documented for this molecule, `COc1ccc(Cn2cc3c(c2-c2ccc(OC)cc2)CCc2cnoc2-3)cc1` ?
Result string: -29.7

Query string: Quick one: growth for `CC(=O)c1cc(Nc2cc(C)nc(N)n2)cc(C(C)=O)c1` ?
Result string: 117

Query string: Fill blank: measured growth of the molecule `CCCCCCCCCCCCCCCC[n+]1cccc(C#N)c1` is ____.
Result string: 73.3

Query string: I'd like to know its growth. The molecule in question is `O=C(/C=C/c1ccc(Br)cc1)c1ccccc1`
Result string: 87.6

Query string: growth for `CCCCCCCCCCCCCCCCNC(=S)N/N=C/c1ccc(O)cc1O` ?
Result string: 75.2

Query string: Report growth for `CCNc1nnc(COc2ccc(CNC(=O)CCCC/C=C/C(C)C)cc2OC)o1` please.
Result string: 104

Query string: What value of growth has been reported for the following molecule? `O=C(O)c1ccc(-c2nn(-c3ccc(C(=O)O)cc3)cc2CNc2ccc(Br)cc2)cc1`
Result string: 107

Query string: Can you look up the measured growth of `COc1ccc(-c2nc(N)n(C(=S)Nc3ccccc3)n2)cc1` for me?
Result string: 107

Query string: Recorded growth of `O=C(/C=C1\C(=O)N(Cc2ccc([N+](=O)[O-])cc2)c2ccccc21)c1ccc(OCCN2CCCC2)cc1` , please.
Result string: 48.2

Query string: Requested field: growth. Item: `CCOc1ccccc1/C=N\N=C(N/N=C/c1ccccc1OCC)N/N=C/c1ccccc1OCC`
Result string: 13.4

Query string: I have this molecule here, `COc1ccc(Nc2c3ccccc3nc3ccccc23)cc1` , and I need its recorded growth.
Result string: 31.3

---

Test system: SW-620 colon
Assay: NCI-60 one-dose screen, 48 h
Settings: 10 µM unless noted
Compounds without any hit were thinned out: in the full panel of roughly 83,000, 20% have a hit. Activity calls are given as the source filed them. How the source made its calls: active means growth percent below 10; inactive means the rest.
A correct response names exactly one class from T (active), F (inactive)

Query string: Could you please tell me the result logged for `NC(=O)c1c(Nc2ccccc2)nn2cc(-c3nc4ccccc4s3)c(N)nc12` in this assay?
Result string: F

Query string: Status in this test for `CC(=O)Nc1nc(C)c(C(=O)N/N=C/N2CCOCC2)s1` ?
Result string: F

Query string: Given `CC(=O)Nc1nc(C)c(C(=O)NN)s1` , state the outcome it received in this test.
Result string: F

Query string: Please let me know the test result on file for `CC(C)(C)OC(=O)N1C/C(=C\c2ccccc2)C(=O)/C(=C/c2ccccc2)C1` .
Result string: F

Query string: Test call, this compound: CCCCCCCCC1OC1CCCCCCCC(=O)O (stereo not drawn)
Result string: F

Query string: Hi, sorry to bother you, what did the test record for `CCn1cc(C(=O)O)c(=O)c2cc(F)c(N3CCN(S(=O)(=O)c4ccc(Cl)cc4)CC3)cc21` ?
Result string: F

Query string: Identify the outcome logged in this assay for the compound shown: `Cc1ccc(NCc2cn(-c3ccc(C(=O)O)cc3)nc2-c2ccc(C(=O)O)cc2)cc1`
Result string: F

Query string: Just curious, what result did `Nc1cc(N)c2nc(-c3ccccc3)c(NCCc3ccc(Cl)c(Cl)c3)nc2c1` get here?
Result string: T

Query string: Give the logged outcome of this assay for the following compound: `Cc1c(C(N)=O)sc2c1c(=O)n(Cc1ccccc1)c1nnc(S(C)(=O)=O)n21`
Result string: F

Query string: Give the logged outcome of this assay for the following compound: `COc1ccc(Cn2cc3c(c2-c2ccccc2)CCc2cnoc2-3)cc1OC`
Result string: F

Query string: Hello, I am checking results. What call was entered for `COCn1c(C(=O)OC)cc2oc(/C=C3/SC(=S)N(N)C3=O)cc21` ?
Result string: F

Query string: Test call, this compound: COc1cc2cc3cc4cc(OC)c(OC)cc4c(C)[n+]3cc2cc1OC (tested in a mixture with another compound)
Result string: F

Query string: Recorded test outcome, item `CC(=O)N1CCN(CCNC(=O)n2cc(-c3ccncc3)c(-c3ccc(O)c(Cl)c3)n2)CC1`
Result string: F

---

Tested on: T-47D breast
Test: NCI-60 one-dose screen, 48 h (100 = growth as untreated, 0 = no growth, -100 = all killed)
Settings: 10 µM unless noted
About 83,000 compounds went through this panel and 20% of them were active in at least one assay; those are over-represented in the sample as a whole. Activity calls are given as the source filed them. The calls were made as follows: active = growth percent below 10; inactive = the rest.
Consider the following compounds; for each one, report its growth.

Query string: Could you share which growth value was measured for `COc1cc(CNC(=O)CCCC/C=C/C(C)C)ccc1OCc1nnc(Nc2ccccc2F)o1` ?
Result string: 65% (inactive)

Query string: Endpoint output: growth of `CC(=O)O.[In]` . Value?
Result string: 103% (inactive)

Query string: Need growth, item `Oc1ccccc1\C=N/N=C/C=C/c1ccccc1`
Result string: 76.9% (inactive)

Query string: Look up growth for this compound: `COc1ccc(Oc2[nH]n(C3=Nc4ccccc4Sc4ccccc43)c(=O)c2C#N)cc1`
Result string: 92.8% (inactive)

Query string: Please look up its growth: `O=c1[nH]c(=S)[nH]c(O)c1/C=C1\C=Nc2ccccc21`
Result string: 98.4% (inactive)

Query string: Recorded growth of `CCOC(=O)C1=NN(c2ccccc2)C2=NC(=O)/C(=C\c3cn(-c4ccccc4)nc3-c3cc4ccccc4o3)C(=O)N12` , please.
Result string: 86.6% (inactive)

Query string: Consider the compound shown here: `Cc1nc(NC(=O)NC2CCCCC2)sc1C(=O)NN` What is its recorded growth?
Result string: 112% (inactive)

Query string: Could you share which growth value was measured for `COc1ccc2c(c1)/C(=C/c1c(-c3cc(OC)c(OC)c(OC)c3)nc3sccn13)C(=O)N2` ?
Result string: 86.6% (inactive)

Query string: What does the data say about its growth? Entry: `CSCc1ncc(-c2ccc(C(F)(F)F)cc2)c(NC2CCCCCC2)n1`
Result string: 53.5% [25 µM] (inactive)

Query string: Suppose we examine the compound `CCCCCSc1ccc2nc(NC(=O)OCCC)sc2c1` ; what growth value has been reported?
Result string: 38.1% (inactive)

Query string: What value of growth has been reported for the following compound? `CSc1nc(N)n2nccc2n1`
Result string: 102% (inactive)
